The measured values listed here are drawn from ChEMBL document CHEMBL5528024.

- TESTED_TARGET: UniProt:P37840
- ASSAY_PROCEDURE: Inhibition of wild type full length recombinant alpha-synuclein (unknown origin) expressed in Escherichia coli by spectrophotometric analysis
READOUT_TYPE: pIC50
When answering, recall that pIC50 equals minus log10 of the concentration in mol/L, and write that number alone.

Answer with the recorded pIC50 of COc1cc(/C=C/C(=O)O)ccc1O [FERULATE] only.
4.89
